Assay: Human HepG2 cell viability assay in 384 well format
Assay type: toxicity, cell-based
Design: dose 125 nL, time 70.5 hour; concentration not given beside the values
Conditions: HepG2 cells, read-out: Inhibition
assayEndpoint: cytotoxicity at 70.5 h (%)
Numeric only. Scale: %

CC(NC(=O)NCCCn1cncn1)c1ccc2c(c1)OCCO2 (stereo unspecified) :: -7.07
CCC1CN(CCC(=O)N(C)C)CCN1CCOC (stereo unspecified) :: -8.66
Cc1c(Cl)cccc1N1CC(c2nnc(N)s2)CC1=O (stereo unspecified) :: 5.68
O=C(NCCCn1nc2ccccn2c1=O)NC(C1CC1)C1CC1 :: -16.5
Nc1nnc(SCc2cc(=O)n3c4c(sc3n2)CCCC4)[nH]1 :: -3.97

Now let's try a different one.
Incoming: What does the data say about its cytotoxicity at 70.5 h? Entry: Cc1nnc(CN(C)C2CCN(Cc3nnc(C4CCC4)o3)C2)n1C (stereo unspecified)
Outgoing: 1.37

###

Test: Human HepG2 cell viability assay in 384 well format
Format: toxicity, cell-based
Parameters: dose 125 nL, time 70.5 hour; concentration not given beside the values
Settings: HepG2 cells, read-out: Inhibition
assayEndpoint: cytotoxicity at 70.5 h (%)
Numeric only. Scale: %

Some compounds with recorded cytotoxicity at 70.5 h:
O=S(=O)(C1CC1)N1CCO[C@@H]2CC(COCc3cccnc3)C[C@H]21 (some centres undefined) :: -2.81
c1cn2c(n1)CNCC(COCC1CC1)C2 (centres undefined) :: -9.26
Cc1ccc(CN2CC(C(=O)Nc3ccccc3)C3(CCOCC3)C2)o1 (centres undefined) :: -12.3
Cc1cc(CN2C[C@H](N3CCOCC3)[C@@H]3OCCC[C@@H]32)oc1C :: -7.89
Cc1cn(-c2ccccc2)nc1NS(=O)(=O)c1ccc(C(=O)O)cc1F :: -18

Now let's try a different one.
Incoming: What does the data say about its cytotoxicity at 70.5 h? Entry: CCN(Cc1ccccc1Cl)Cn1nc(C)c2c(C)onc2c1=O
Outgoing: -6.62

###

Assay: Human HepG2 cell viability assay in 384 well format
Format: toxicity, cell-based
Design: dose 125 nL, time 70.5 hour; concentration not given beside the values
Details: HepG2 cells, read-out: Inhibition
assayEndpoint: cytotoxicity at 70.5 h (%)
Numeric only. Scale: %

CC(=O)c1cnc(NCCN2CCCC2)nc1C :: -0.135
Cn1ccnc1CN1CCC2(CC1)CN(c1ccccc1)C(=O)CO2 :: 4.73
Cc1nc2n(n1)CC(NCc1nc3ccccc3o1)CC2 (configuration not stated) :: 1.97

Incoming: What does the data say about its cytotoxicity at 70.5 h? Entry: OC(COCc1ccccc1)CN1CC(n2cccn2)C1 (configuration not stated)
Outgoing: -3.54

Incoming: What does the data say about its cytotoxicity at 70.5 h? Entry: O=C(C[C@H]1[C@H]2CN(Cc3ccncc3)C[C@@H]12)N1CCCC1
Outgoing: 20.1

Incoming: What does the data say about its cytotoxicity at 70.5 h? Entry: CCOc1cccc(COC(=O)c2ccc(Cl)cn2)n1
Outgoing: -8.76

Incoming: What does the data say about its cytotoxicity at 70.5 h? Entry: Cc1cc(CN(C)C(=O)C2CCCN(C(=O)c3ccc(Cl)cc3)C2)no1 (configuration not stated)
Outgoing: -10.8

Incoming: What does the data say about its cytotoxicity at 70.5 h? Entry: CCN(C(=O)CN1CCCC1c1ccc(F)cc1)c1ccccc1C (configuration not stated)
Outgoing: -3.01
